Data origin: patent US20240409530A1

# TARGET_OF_ASSAY: human KHK in HepG2 Cells (Homo sapiens (Human), UniProt P50053)
# Sequence (P50053 whole entry): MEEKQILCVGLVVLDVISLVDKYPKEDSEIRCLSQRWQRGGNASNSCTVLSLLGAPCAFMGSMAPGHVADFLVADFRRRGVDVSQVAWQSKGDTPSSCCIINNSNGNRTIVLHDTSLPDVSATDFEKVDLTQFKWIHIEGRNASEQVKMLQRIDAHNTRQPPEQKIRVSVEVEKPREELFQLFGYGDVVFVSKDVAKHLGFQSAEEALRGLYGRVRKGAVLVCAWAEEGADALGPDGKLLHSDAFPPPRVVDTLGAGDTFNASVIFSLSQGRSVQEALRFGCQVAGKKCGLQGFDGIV
# TEST_NAME: Cell-based potency assay (HepG2 assay), F1P by LC/MS
# CONDITIONS: fructose 20 mM, 20 min, F1P produced
MEASUREMENT_TYPE: pIC50
One number for each entry, as −log10 of the molar value.

Here's what some known entries look like.
Given CCc1c(-c2cnn(C3CN(C)C3)c2)nc(N2C[C@@H](O)[C@@H]2C)nc1C(F)(F)F , state its recorded pIC50.
8.40

Fill in: pIC50 of Cc1c(-c2cnn(C3CN(C)C3)c2)nc(N2C[C@@H](O)[C@@H]2C)nc1C(F)(F)F is ___
9.00

Fill in: pIC50 of Cc1c(-c2cnn(C3CN(C)C3)c2)nc(N2C[C@@H](O)[C@@H]2C)nc1C(F)F is ___
8.70

Give measured pIC50 for every item shown.
1. C[C@H]1CCN1c1nc(-c2cnn(CC(=O)N3CCNCC3)c2)cc(C(F)(F)F)n1 [Compound C2, reference compound]
2. Cc1c(-c2cnn(CC(=O)N3CCNCC3)c2)nc(N2CC[C@@H]2C(F)(F)F)nc1C(F)F

7.04
7.96

Field: pIC50. Fill in for each record below.
1. C[C@H]1[C@H](O)CN1c1nc(-c2cnn(C3CN(C)C3)c2)c(F)c(C(F)(F)F)n1
2. C[C@H]1CCN1c1nc(-c2cnn(CC(=O)N3CCNCC3)c2)cc(C(F)F)n1

8.05
6.48

====

# TARGET_OF_ASSAY: Human recombinant KHK-C (Homo sapiens (Human), UniProt P50053)
# Sequence (P50053 whole entry): as above
# TEST_NAME: KHK inhibition assay, recombinant isozyme (coupled pyruvate kinase/LDH, NADH absorbance 340 nm)
# CONDITIONS: recombinant isozyme 6 nM, fructose 2 mM, ATP 0.1 mM
MEASUREMENT_TYPE: IC50 (nM)
Numbers only, in nM.

Recorded IC50 for Cc1c(-c2cnn(CC(=O)N3CCNCC3)c2)nc(N2CC[C@@H]2C(F)(F)F)nc1C(F)(F)F with Human recombinant KHK-C (Homo sapiens (Human), UniProt P50053), please?
4.06

Look up IC50 for the entries below, preserving their order.
1. CN1CC(n2cc(-c3cc(C(F)(F)F)nc(N4C[C@@H](O)[C@@H]4C(F)(F)F)n3)cn2)C1 (racemic)
2. C[C@H]1[C@H](O)CN1c1nc(-c2cnn(C3CN(C)C3)c2)cc(C(F)F)n1

5.22
40.5
